- assay.text: chemical genetic growth profiling, strain panel (AID 1159580);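 further: tested at 20 µM; growth read once vehicle control cultures reached saturation at 30 °C; 1 = growth at the plate median or of vehicle wells; lower values mean less growth of the strain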
- conditions: S. cerevisiae strains, growth OD, strain wild type, active compounds read low
Among all 5,500 compounds or so, about 2,000 (36%) were called active. Another 18% or so got no clear call; they are omitted. Some of the results follow.
Please use true for normalized growth under 1 and false for everything else, ties included.

query.smiles	label.class
COc1cc2c(cc1OC)C(=O)c1ccc(OC)c(OC)c1OCC(=O)C2	false

As a next step, examine the compound that follows.
QUERY: normalized growth under 1? Item: `COc1ccc2c(c1)OC/C(=C\c1ccc(OC)c(O)c1)C2=O`
RESULT: true

---

- assay.text: chemical genetic growth profiling, strain panel (AID 1159580);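 further: tested at 20 µM; growth read once vehicle control cultures reached saturation at 30 °C; 1 = growth at the plate median or of vehicle wells; lower values mean less growth of the strain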
- conditions: S. cerevisiae deletion strains, growth OD, locus YCL016C, strain dcc1, active compounds read low
Out of some 5,500 compounds screened, about 2,000 (36%) were called active. About 18% were inconclusive and are not listed. The list shows a part of the results.
Entries and their normalized growth values follow.
Respond with the number and no other words.

Worked examples, 2 compounds total:
compound	normalized growth
O=S(=O)(O)CCS	0.976
COc1ccc2c(c1)OC1(O)COc3cc(OC)c(OC)cc3C1=C2 (stereo not drawn)	1.01

QUERY: Tell me measured normalized growth for `NCCS(=O)(=O)O` please.
RESULT: 0.984

QUERY: Consider the compound `O=C(O[C@@H]1Cc2c(O)cc(O)cc2O[C@@H]1c1cc(O)c(O)c(O)c1)c1cc(O)c(O)c(O)c1` . State its measured normalized growth.
RESULT: 0.934

QUERY: Identify measured normalized growth associated with CN1C2CCC1CC(OC(c1ccccc1)c1ccccc1N)C2 (stereo not drawn)
RESULT: 0.994

QUERY: Give me measured normalized growth, please, for this compound: `O=C(O)CCCc1ccc(N(CCCl)CCCl)cc1`
RESULT: 0.931
